Reference source: patent US20230339882A1

Tested on: lung cancer cells NCI-H358
Assay: Cell proliferation assay, CELL TITER-GLO (CTG) luminescence, NCI-H358
Type: cell-based
Settings: Homo sapiens, NCI-H358, ultra-low adsorption plate, cultured for 96 hrs
With a cut-off of 4 nM, any IC50 strictly below it is called criterion met; any IC50 meeting it or above is called criterion not met.

Past entries and their recorded results:
{"Compound": "NC(=O)Cc1ccc(OCC#Cc2cnc(N3CCC4(CC3)Cc3ccccc3[C@H]4N)c(CO)n2)cc1 [Compound A71]", "Target Desc": "lung cancer cells NCI-H358", "Class Label": "criterion not met"}
{"Compound": "N[C@@H]1c2ccccc2CC12CCN(c1ncc(C#CCNc3ccccc3)nc1CO)CC2 [Compound A07]", "Target Desc": "lung cancer cells NCI-H358", "Class Label": "criterion not met"}
{"Compound": "COc1ccc(OCC#Cc2cnc(N3CCC4(CC3)Cc3ccccc3[C@H]4N)c(CO)n2)cc1 [Compound A09]", "Target Desc": "lung cancer cells NCI-H358", "Class Label": "criterion not met"}
{"Compound": "CN(C)C(=O)c1cccc(OCC#Cc2cnc(N3CCC4(CC3)Cc3ccccc3[C@H]4N)c(CO)n2)c1 [Compound A36]", "Target Desc": "lung cancer cells NCI-H358", "Class Label": "criterion not met"}

Regarding Nc1nc2cc(OCC#Cc3cnc(N4CCC5(CC4)Cc4ccccc4[C@H]5N)c(CO)n3)ccc2o1 [Compound A69] , kindly confirm whether its IC50 is beneath 4 nM.
criterion met

Repeat with N[C@@H]1c2ccccc2CC12CCN(c1ncc(C#CCOc3ccc(C(F)(F)F)nc3)nc1CO)CC2 [Compound A70]
criterion not met

Would you kindly repeat that for Cc1cc(OCC#Cc2cnc(N3CCC4(CC3)Cc3ccccc3[C@H]4N)c(CO)n2)ccc1C(N)=O [Compound A74] ?
criterion not met

Again, but for CC(=O)Nc1ccc(OCC#Cc2cnc(N3CCC4(CC3)Cc3ccccc3[C@H]4N)c(CO)n2)cc1 [Compound A08]
criterion met

Try this compound too: NC(=O)c1cccc(OCC#Cc2cnc(N3CCC4(CC3)Cc3ccccc3[C@H]4N)c(CO)n2)c1 [Compound A27]
criterion met

// repeat for CNc1ncc(OCC#Cc2cnc(N3CCC4(CC3)Cc3ccccc3[C@H]4N)c(CO)n2)cn1 [Compound A68] and report
criterion not met

Now consider N[C@@H]1c2ccccc2CC12CCN(c1ncc(C#CCNc3ccc4c(c3)NC(=O)CC4)nc1CO)CC2 [Compound A64] .
criterion met

Record: Cn1nccc1NCC#Cc1cnc(N2CCC3(CC2)Cc2ccccc2[C@H]3N)c(CO)n1 [Compound A61]
criterion not met
